Molecular target: hBPGM (Homo sapiens)
Sequence (P07738 1-259): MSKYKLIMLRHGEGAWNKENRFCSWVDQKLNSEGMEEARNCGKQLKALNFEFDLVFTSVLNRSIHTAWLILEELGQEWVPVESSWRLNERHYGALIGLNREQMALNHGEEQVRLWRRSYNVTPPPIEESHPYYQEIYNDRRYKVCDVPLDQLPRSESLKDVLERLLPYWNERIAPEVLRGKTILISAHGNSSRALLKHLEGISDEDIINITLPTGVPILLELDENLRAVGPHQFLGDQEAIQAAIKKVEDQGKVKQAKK
Assay: BPGM synthase assay
Format: biochemical
Conditions: Table 6; read-out: huBPGM: synthase Enzyme IC50
Criterion: IC50 strictly under 80 nM. Met: YES. Not met: NO.

| MOLECULE | DISCRETE LABEL |
| --- | --- |
| Cc1nc(COC(=O)N2CCC(N(C)C)C2)sc1-c1cccc(-c2cc(F)c3nn[nH]c3c2F)n1 (stereo not shown) [Example 32] | YES |
| Cc1nc(COc2ncccn2)sc1-c1ccnc(-c2cc(F)c3nn[nH]c3c2F)n1 [Example 220] | YES |
| Cc1nc(COc2ncccn2)sc1-c1nc(-c2cc(F)c(O)c(C#N)c2)cs1 [Example 72] | NO |
| Cc1nc(COCCN(C)C)sc1-c1cccc(-c2cc(F)c3nn[nH]c3c2F)n1 [Example 221] | NO |
| Cc1nc(COC(=O)N2CCC(O)C2)sc1-c1csc(-c2cc(F)c3[nH]nnc3c2F)n1 (stereo not shown) [Example 75] | NO |
| Cc1nc(COC(=O)N(C)C)sc1-c1cccc(-c2cc(F)c3nn[nH]c3c2)n1 [Example 167] | NO |
| Cc1nc(COc2ncccn2)sc1-c1cccc(-c2nnn[nH]2)n1 [Example 73] | NO |
| Cc1nc(CNC(=O)c2cccnn2)sc1-c1csc(-c2cc(F)c(O)c(F)c2F)n1 [Example 186] | NO |
| Cc1nc(CNC(=O)N(C)C)sc1-c1cccc(-c2cc(F)c(O)c(F)c2F)n1 [Example 28] | NO |
| Cc1nc(COCC(=O)N(C)C)sc1-c1csc(-c2cc(F)c(O)c(F)c2F)n1 [Example 160] | NO |

Decide: IC50 of Cc1nc(COC(=O)N2CCC(O)CC2)sc1-c1cccc(-c2cc(F)c3nn[nH]c3c2F)n1 [Example 47] strictly below 80 nM? YES

Would you mind doing COC(=O)NCc1nc(C)c(-c2csc(-c3ccc(O)c(C#N)c3F)n2)s1 [Example 173] as well? NO

Next molecule: Cc1nc(COc2nccc(C(=O)O)n2)sc1-c1cccc(-c2cc(F)c3nn[nH]c3c2)n1 [Example 118] YES

====

Biological target: UniProt P07738
Sequence (P07738 1-259): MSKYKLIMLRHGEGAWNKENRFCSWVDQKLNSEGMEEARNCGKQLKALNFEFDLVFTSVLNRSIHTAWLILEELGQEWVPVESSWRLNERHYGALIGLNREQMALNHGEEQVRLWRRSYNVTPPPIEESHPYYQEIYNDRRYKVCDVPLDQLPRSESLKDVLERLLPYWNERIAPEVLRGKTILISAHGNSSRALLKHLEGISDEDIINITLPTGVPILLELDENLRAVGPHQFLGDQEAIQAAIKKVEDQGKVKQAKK
Test: BPGM synthase assay
Type: biochemical
Details: Table 6; read-out: huBPGM: synthase Enzyme IC50
Let's look at some molecules and their measured pIC50.
pIC50 (log units): -log10 of the concentration in mol/L.

| MOLECULE | pIC50 |
| --- | --- |
| Cc1nc(COc2ncccn2)sc1-c1cccc(-c2cc(F)c3[nH]nnc3c2)n1 | 7.27 |
| Cc1nc(COc2ncccn2)sc1-c1csc(-c2cc(F)c(O)c(F)c2F)n1 [compound 10] | 6.89 |
| Cc1nc(CNC(=O)c2cccnn2)sc1-c1csc(-c2cc(F)c(O)c(F)c2)n1 | 6.39 |
| Cc1nc(COc2ccccn2)sc1-c1ccnc(-c2cc(F)c3nn[nH]c3c2F)n1 | 7.12 |
| COC(=O)NCc1nc(C)c(-c2csc(-c3cc(O)c(C#N)cc3F)c2)s1 | 6.01 |

Looking for the measured pIC50 of `COC(=O)NCc1nc(C)c(-c2csc(-c3ccc(O)c(F)c3F)n2)s1` , can you help? 5.38

Further, for `Cc1nc(COc2ncccn2)sc1-c1csc(-c2cc(F)c(C#N)c(O)c2F)n1` ? 6.60

Item: `COC(=O)NCc1nc(C)c(-c2csc(-c3cc(F)c4[nH]nnc4c3F)n2)s1` 7.30

Note, next up: `Cc1nc(C)c(-c2csc(-c3cc(F)c(O)c(F)c3F)n2)s1` 5.54

And then Cc1nc(CNC(=O)N2CCC(O)C2)sc1-c1csc(-c2cc(F)c(O)c(F)c2F)n1 (stereo not drawn) , what is it? 5.64

Same again, this time with `Cc1nc(COCC(=O)N(C)C)sc1-c1cccc(-c2cc(F)c3nn[nH]c3c2)n1` 6.77
